# measurement_target: HLA-B*15:02
# test_name: IEDB peptide-MHC binding, purified MHC/competitive/fluorescence; filed as Kd, often an IC50 or EC50 that approximates it; bounds were set here for any values at or beyond the usual limits of such assays
# measurement_conditions: source organism: Bacillus anthracis str. A2012
readout_type: pKd
Just so you know, pKd here is -log10 of the concentration in molar units; reply with that number alone.

## Input Using known records, supply pKd for WMYYPRSPV
## Output 6.41

* * *

Entries and their pKd
# measurement_target: HLA-B*44:03
# test_name: IEDB peptide-MHC binding, purified MHC/competitive/radioactivity; filed as Kd, often an IC50 or EC50 that approximates it; bounds were set here for any values at or beyond the usual limits of such assays
# measurement_conditions: source organism: Dengue virus 3 Martinique/1243/1999
Just so you know, pKd here is -log10 of the concentration in molar units; reply with that number alone.

EEHNSTWHY; 7.17

## Input Using known records, supply pKd for EEMFKKRNL
## Output 6.32

* * *

# measurement_target: HLA-A*68:02
# test_name: IEDB peptide-MHC binding, purified MHC/competitive/fluorescence; filed as Kd, often an IC50 or EC50 that approximates it; bounds were set here for any values at or beyond the usual limits of such assays
# measurement_conditions: source organism: Influenza A virus (A/swine/Italy/1509-6/97(H1N1))
readout_type: Kd (nM)
Numbers only; they are read as nM.

## Input Using known records, supply Kd for WMACHSAAF
## Output 929

* * *

# measurement_target: HLA-A*02:11
# test_name: IEDB peptide-MHC binding, purified MHC/direct/fluorescence; filed as Kd, often an IC50 or EC50 that approximates it; bounds were set here for any values at or beyond the usual limits of such assays
# measurement_conditions: source organism: Entamoeba histolytica HM-1:IMSS
pKd: −log10 of the molar value.
readout_type: pKd

## Input Using known records, supply pKd for RQRHYFDSA
## Output ≤ 4.70

* * *

# measurement_target: HLA-B*15:01
# test_name: IEDB peptide-MHC binding, purified MHC/direct/fluorescence; filed as Kd, often an IC50 or EC50 that approximates it; bounds were set here for any values at or beyond the usual limits of such assays
# measurement_conditions: source organism: Escherichia coli O157:H7
readout_type: Kd

Examples with their reported Kd follow.
LPEFERRTL; ≥ 20 µM
PLKVKDIPF; 0.196 µM

Continue with the sequence presented below.
## Input // output Kd; input AHGWSTFYL ; system HLA-B*15:01
## Output ≥ 20 µM

* * *

# measurement_target: HLA-A*03:01
# test_name: IEDB peptide-MHC binding, purified MHC/competitive/radioactivity; filed as Kd, often an IC50 or EC50 that approximates it; bounds were set here for any values at or beyond the usual limits of such assays
# measurement_conditions: source organism: Lymphocytic choriomeningitis virus (strain WE)
readout_type: Kd (nM)
Numbers only; they are read as nM.

## Input Using known records, supply Kd for SAYLISIFLH
## Output 668

* * *

# measurement_target: HLA-A*02:11
# test_name: IEDB peptide-MHC binding, purified MHC/competitive/fluorescence; filed as Kd, often an IC50 or EC50 that approximates it; bounds were set here for any values at or beyond the usual limits of such assays
# measurement_conditions: source organism: Escherichia coli F11
pKd: −log10 of the molar value.
readout_type: pKd

## Input Using known records, supply pKd for GSGDDTWLI
## Output ≤ 4.70
